Consider the following compounds; for each one, report its Activity.
- Test system: Plasmodium berghei
- Experimental Protocol: Reduced parasitemia in Plasmodium berghei infected NMRI mice (Mus musculus)
- Format: functional
- Design: concentration or dose not given beside the values
Give bare numbers, in %.

Worked examples, 3 compounds total:
C[C@@H]1CC[C@H]2[C@@H](C)C(OC(=O)CCC(=O)[O-])O[C@@H]3O[C@]4(C)CC[C@@H]1[C@]32OO4.[Na+] (some centres not stated) : 92
CCOC(=O)N1CCC2(CC1)OCC(C[C@H]1O[C@@H]3O[C@]4(C)CC[C@H]5[C@H](C)CC[C@@H]([C@H]1C)[C@@]35OO4)(C[C@H]1O[C@@H]3O[C@]4(C)CC[C@H]5[C@H](C)CC[C@@H]([C@H]1C)[C@@]35OO4)O2 (some centres not stated) : 99.6
C[C@H]1[C@@H](CC(O)(COCC#CCOCc2ccc(F)cc2)C[C@H]2O[C@@H]3O[C@]4(C)CC[C@H]5[C@H](C)CC[C@@H]([C@H]2C)[C@@]35OO4)O[C@@H]2O[C@]3(C)CC[C@H]4[C@H](C)CC[C@@H]1[C@@]24OO3 (some centres not stated) : 88

// batch mode: one Activity value per listed entry
1. Cc1noc(C(C[C@H]2O[C@@H]3O[C@]4(C)CC[C@H]5[C@H](C)CC[C@@H]([C@H]2C)[C@@]35OO4)C[C@H]2O[C@@H]3O[C@]4(C)CC[C@H]5[C@H](C)CC[C@@H]([C@H]2C)[C@@]35OO4)n1 (some centres not stated)
2. C[C@H]1[C@@H](CC(C[C@H]2O[C@@H]3O[C@]4(C)CC[C@H]5[C@H](C)CC[C@@H]([C@H]2C)[C@@]35OO4)c2nnc(-c3ccc(F)cc3)o2)O[C@@H]2O[C@]3(C)CC[C@H]4[C@H](C)CC[C@@H]1[C@@]24OO3 (some centres not stated)
3. CCN(CC)C(=O)OCC(C[C@H]1O[C@@H]2O[C@]3(C)CC[C@H]4[C@H](C)CC[C@@H]([C@H]1C)[C@@]24OO3)C[C@H]1O[C@@H]2O[C@]3(C)CC[C@H]4[C@H](C)CC[C@@H]([C@H]1C)[C@@]24OO3 (some centres not stated)
4. C[C@H]1[C@@H](CC2(C[C@H]3O[C@@H]4O[C@]5(C)CC[C@H]6[C@H](C)CC[C@@H]([C@H]3C)[C@@]46OO5)COC3(CCOCC3)O2)O[C@@H]2O[C@]3(C)CC[C@H]4[C@H](C)CC[C@@H]1[C@@]24OO3 (some centres not stated)

stdout:
[98.9, 98.8, 99.3, 99.5]

These measurements were taken from ChEMBL document CHEMBL1141568.
